Values compiled from paper PMC6753678.

System: HepG2 cells
ASSAY SUMMARY: HepG2 cytotoxicity assay
CONDITION NOTES: HepG2 cytotoxicity unified across the three screens
So basically: Unified cytotox at 6 µM or higher? That is yes. Lower than 6 µM? That is no.

Worked cases, answers included:
MOLECULE: CN(C)CCNCc1ccc(-c2ccc3c(Nc4ccc(Oc5ccccc5)cc4)ccnc3c2)o1 [TCMDC-138399]
GROUP: yes
//
MOLECULE: CC(C)NCc1ccc(OCc2cccc(COc3ccc(CNC(C)C)cc3I)c2)c(I)c1.Cl [TCMDC-137259]
GROUP: no
//
MOLECULE: COc1cc2nc(N3CCC(CNCc4ccc(-c5ccc(C(F)(F)F)cc5)cc4)CC3)nc(N)c2cc1OC [TCMDC-138757]
GROUP: no

// query Determine whether measured Unified cytotox meets or exceeds 6 µM for Cc1cc(OCCN2CCCCC2)ccc1NC(=O)c1cccc2c(=O)n(Cc3ccc(Cl)cc3)cnc12 [TCMDC-136727]
// result no

// query Repeat for the following molecule: COc1ccc(CNC(=O)c2cnc3c(O)cccc3c2Nc2cccc(NC(=O)c3ccc(Cl)c(Cl)c3)c2)cc1.O=C(O)C(F)(F)F [TCMDC-139607]
// result no

// query Repeat for the following molecule: Cc1cccc2nc(-c3ccc(-c4ccc(CNCc5ccc(CN)cc5)cc4)s3)[nH]c12.O=C(O)C(F)(F)F [TCMDC-132809]
// result yes
